- measurement_description: binders from COS7 lysate, DM2A8 probe, primary screen, torsin A project, cell lysate, small-molecule microarray, fluorescence 635/667 (AID 1065)
- measurement_setup: higher = more signal, COS7 lysate expressing mutant human TOR1A
Could you label it Met if measured composite z-score is 0.04 or higher, and Not met otherwise?

Reported composite z-score at or above 0.04? `CC(C)[Si](C#C[Si](C(C)C)(C(C)C)C(C)C)(O[C@H](C)c1cn(Cc2cccc(Cl)c2)nn1)C(C)C`
Not met

Say whether CCCCCCCCCCC(O)C1C=CC2C(=O)NC(=O)C2N1Nc1ccccn1 (stereo not given) shows composite z-score of 0.04 or more.
Not met

Is it the case that `CC(C)N1C(=O)c2ccccc2[C@](C)(C(=O)O)[C@@H]1c1ccc(CO)cc1` has composite z-score reaching or exceeding 0.04?
Not met

Test whether the compound `CCCCC=C[C@@H](NC(=O)CCc1ccccc1)c1ccccc1` records composite z-score of 0.04 or higher.
Met

Please indicate if the recorded composite z-score for `NC(=O)NCC#Cc1ccc2c(c1)[C@]1(C(=O)N2)[C@H](c2ccc(OCCO)cc2)N2[C@H](c3ccccc3)[C@H](c3ccccc3)OC(=O)[C@H]2[C@@H]1C(=O)N1CCCCCCC1` meets or exceeds 0.04.
Met

Reported composite z-score reaches at least 0.04 for `CCCN1C(=O)[C@@]2(Cc3ccccc3)N=C(c3ccc(OCCCO)cc3)O[C@H]2c2ccccc21` ?
Met

Test whether the compound `COc1ccc(CCNC(=O)[C@@H]2c3ccccc3C(=O)N(Cc3ccccc3)[C@H]2c2ccc(CO)cc2)cc1` records composite z-score of 0.04 or higher.
Met

Given `COC(=O)[C@@]1(Cc2ccc(OC)cc2)[C@H]2c3cc(C(=O)N4CCCC4)n(CCc4ccc(O)c(OC)c4)c3C[C@H]2CN1C(=O)c1ccccc1` , state whether its composite z-score is at least 0.04.
Not met

Can `C[N+](C)(C)CCCC[C@@H]1NC(=O)[C@@H]2C[C@H](C(=O)O)[C@H](c3cccc(OCCO)c3)N2C1=O` be said to have composite z-score at or above 0.04?
Met

Kindly determine if composite z-score recorded for CC1CC/C=C\[C@H]2OC34C=CCN(Cc5ccccc5)C(=O)[C@H]3N(CCO)C(=O)[C@@H]4C2C(=O)O1 (stereo not given in full) is above or exactly 0.04.
Met

* * *

For each of the molecules below, state its composite z-score.
- subject_of_test: Calmodulin-1 (Homo sapiens)
- measurement_description: small molecules binding calmodulin-1 with EGTA – biochemical, small-molecule microarray, Cy5-labelled CALM1, profiling panel (AID 1111);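 further: labelled calmodulin applied in Tris saline Tween buffer holding calcium plus EGTA and DTT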
- measurement_setup: Cy5-CALM1 binding fluorescence, higher = more signal
Give your answer as a number; write no unit.

Which composite z-score value belongs to `CN(C)CCCN1C(=O)[C@@]2(Cc3ccccc31)c1ccccc1C(=O)N(Cc1ccccc1)[C@H]2c1ccc(CO)cc1` ?
0.505

Entry CC1(C)[C@@H]2CC(C(O)C3C=CC4C(=O)N(c5ccccc5)C(=O)C4N3Nc3ccccc3F)=C[C@@H]1C2 (some centres undefined) : reported composite z-score = ?
1.18

Data request, read-out composite z-score, for O=C1NC(=O)C2C1C=CC(C(O)c1ccc3c(c1)OCO3)N2Nc1ccc(Cl)cc1Cl (centres undefined)
1.43

Can you share its composite z-score? I mean this molecule: `C=C[C@@H](O)[C@H]1CC(c2ccccc2)=NO1`
-0.358

* * *

Would you kindly list composite z-score for each of these molecules?
- Tested on: wheat germ agglutinin (Triticum aestivum), Alexa647-labelled
- measurement_description: Alexa647-WGA lectin binding to printed small molecules – biochemical, small-molecule microarray, 635/667 nm fluorescence, artefact control for SMM control-protein annotation, profiling panel (AID 1140);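 further: score merges 667 nm feature emission with signal to noise over triplicate slides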
- measurement_setup: WGA-A647 binding, 635 nm fluorescence, higher = more signal
The answer should be a number; do not append a unit.

Report composite z-score for C=CC[C@]1(C(=O)NCC(O)CO)N=C(c2ccc(OCCCO)cc2)O[C@H]1c1ccccc1N=[N+]=[N-] (stereo partly drawn) please.
0.986

Entry under review: `COC(=O)C(CC#Cc1ccc2c(c1)[C@]1(C(=O)N2)[C@H](c2ccc(O)cc2)N2[C@H](c3ccccc3)[C@H](c3ccccc3)OC(=O)[C@H]2[C@@H]1C(=O)O)C(=O)OC` . Reported composite z-score?
-0.22

Form field: reported composite z-score of `COCCOC(=O)N1C(=O)[C@@]2(c3cc(C#CC4(O)CCCCCC4)ccc31)[C@H](C(=O)NC[C@H](O)c1ccccc1)[C@H]1C(=O)O[C@H](c3ccccc3)[C@H](c3ccccc3)N1[C@@H]2c1ccc(OCCO)cc1`
0.357

Would you kindly share the measured composite z-score for `CN(C)CCCNC(=O)[C@@]1(Cc2ccccc2I)c2ccccc2C(=O)N(Cc2ccccc2Cl)[C@H]1c1ccc(CO)cc1` ?
0.73

Please report the recorded composite z-score for `COCCCNC(=O)[C@@H]1c2ccccc2C(=O)N(Cc2cc(F)cc(C(F)(F)F)c2)[C@H]1c1ccc(CO)cc1` .
0.373

Reported composite z-score, molecule `Cc1ccc(-c2cccc(=O)o2)cc1` : ____
-0.233

Find the recorded composite z-score belonging to `Cc1ccc(S[C@]2(C(=O)NCc3ccccc3)CC(=O)N(C3Cc4ccccc4C3)[C@@H]2c2ccc(CO)cc2I)cc1` and report it.
0.146

Reported composite z-score for `COC(=O)C(CC#Cc1ccc2c(c1)[C@]1(C(=O)N2)[C@H](c2ccc(OCCO)cc2)N2[C@H](c3ccccc3)[C@H](c3ccccc3)OC(=O)[C@H]2[C@@H]1C(=O)O)C(=O)OC` : what is it?
1.1

* * *

Answer each item with its documented z-score.
- measurement_description: JC-1 mitochondrial signal, unstimulated adipocytes – cell-based, JC-1 fluorescence, 3T3-L1 adipocytes, 24 h, 100 nL compound, profiling panel (AID 1168); further: test concentration not given here
- measurement_setup: JC-1 mitochondrial fluorescence, higher = more signal, called active from +8 up or from −8 down
The response must contain the number and no unit.

I am curious: what z-score value has been reported for Cc1cc(C)c(C(O)C2C=CC3C(=O)N(c4ccccc4)C(=O)C3N2Nc2ccc([N+](=O)[O-])cc2)c(C)c1 (configuration not stated) ?
-3.61

Endpoint output: z-score of CC(C)=CCCC(C)=CC(O)C1C=CC2C(=O)N(c3ccccc3)C(=O)C2N1Nc1ccc([N+](=O)[O-])cc1 (configuration not stated) . Value?
-1.44

What z-score value was documented for this compound, CCCCC(CC)C(O)C1C=CC2C(=O)NC(=O)C2N1Nc1ccccn1 (configuration not stated) ?
-0.506

Tell me the measured z-score of CC1CC/C=C\[C@H]2OC34C=CCN(c5ccc(Cl)cc5)C(=O)[C@H]3N(C(CO)C(C)C)C(=O)[C@]4(C)C2C(=O)O1 (some centres not stated) , please.
-0.21

Tell me the measured z-score of CC(C)N1CC=CC23O[C@@H]4C=CCOC(=O)[C@@H]4[C@H]2C(=O)N(CCCCCCO)[C@@H]3C1=O (some centres not stated) , please.
-0.109

# query: z-score of entry Cc1ccccc1C(O)C1C=CC2C(=O)N(C)C(=O)C2N1Nc1ccc([N+](=O)[O-])cc1[N+](=O)[O-] (configuration not stated)
-1.15

z-score for `COCCOC(=O)N1C(=O)[C@@]2(c3cc(C#CCNC(N)=O)ccc31)[C@H](c1ccc(OCCO)cc1)N1[C@H](c3ccccc3)[C@H](c3ccccc3)OC(=O)[C@H]1[C@@H]2C(=O)N1CCN(c2ncccn2)CC1` ?
1

Name the recorded z-score for O=C1NC(=O)C2C1C=CC(C(O)c1ccc(-c3ccccc3)s1)N2Nc1ccccn1 (configuration not stated) .
-0.544

Query (compound): CCN(CC)c1ccc(N2CC=CC34O[C@@H]5/C=C\CCCOC(=O)C5[C@H]3C(=O)N(CCCCCO)[C@@H]4C2=O)cc1 (some centres not stated) ; field requested: z-score
-0.267

Quick one: z-score of `CC1=C2[C@@H](CCc3ccccc3)OB(O)C[C@@H]2[C@@H]2C(=O)C=CC(=O)[C@@H]2C1` ?
-1.5

Fill blank: measured z-score of the compound `CN(C)CCCC[C@@H]1NC(=O)[C@H]2C[C@@H](C(=O)NCCCCCCNC(=O)CS)[C@@H](c3ccc(O)cc3)N2C1=O` is ____.
-0.715

Form field: reported z-score of `CCCC=C(CCC)[C@@H](NC(=O)Cc1ccccc1)c1ccc(C(=O)OC)cc1`
-1.7

* * *

- Test system: wheat germ agglutinin (Triticum aestivum), Alexa647-labelled
- measurement_description: Alexa647-WGA lectin binding to printed small molecules – biochemical, small-molecule microarray, 635/667 nm fluorescence, artefact control for SMM control-protein annotation, profiling panel (AID 1140);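 further: score merges 667 nm feature emission with signal to noise over triplicate slides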
- measurement_setup: WGA-A647 binding, 635 nm fluorescence, higher = more signal
Assign composite z-score to each entry below.
Answer using only a numeral; do not append any unit.

Fill in the recorded composite z-score for this compound, with wheat germ agglutinin (Triticum aestivum), Alexa647-labelled as test system: `C=CC[C@@]1(C(=O)NCCN2CCOCC2)N=C(c2ccc(OCCCO)cc2)O[C@@H]1c1ccccc1`
0.978

Form field - read-out: composite z-score; system: wheat germ agglutinin (Triticum aestivum), Alexa647-labelled; submitted item: `COCCCNC(=O)[C@@]1(Cc2ccccc2N=[N+]=[N-])N=C(c2ccc(OCCCO)cc2)O[C@H]1c1ccccc1CN=[N+]=[N-]`
1.05

Please provide the recorded composite z-score for `C[N+](C)(C)CCCCCCNC(=O)[C@H]1C[C@H]2C(=O)N3CCC[C@H]3C(=O)N2[C@H]1c1cccc(OCCO)c1` , tested on wheat germ agglutinin (Triticum aestivum), Alexa647-labelled.
-0.0285

Any idea what composite z-score came out for CCCCCCCCCCC(O)C1C=CC2C(=O)NC(=O)C2N1Nc1ccccn1 (stereo not drawn) on wheat germ agglutinin (Triticum aestivum), Alexa647-labelled?
0.331

Notebook entry, wheat germ agglutinin (Triticum aestivum), Alexa647-labelled assay: composite z-score of `COCCOC(=O)N1C(=O)[C@@]2(c3cc(C#CCNC(N)=O)ccc31)[C@H](C(=O)N1CCCCCCC1)[C@H]1C(=O)O[C@H](c3ccccc3)[C@H](c3ccccc3)N1[C@@H]2c1ccc(OCCO)cc1` = ?
0.534

Give recorded composite z-score with wheat germ agglutinin (Triticum aestivum), Alexa647-labelled for the following compound: `CCOC(=O)C[C@H]1[C@H](OC(=O)c2cc3ccccc3oc2=O)[C@@H](NC(=O)c2ccc3ccccc3n2)c2cc(OCCCO)ccc2N1C(=O)c1ccc2ccccc2n1`
0.131

Provide value of composite z-score for this record tested with wheat germ agglutinin (Triticum aestivum), Alexa647-labelled: `C#CCOC(=O)N[C@H](C=CCCCC)c1ccccc1`
0.817

Item: `COC(=O)[C@]1(Cc2ccccc2CN=[N+]=[N-])N=C(c2ccc(OCCCO)cc2)O[C@@H]1c1ccccc1` Test system: wheat germ agglutinin (Triticum aestivum), Alexa647-labelled Read-out: composite z-score Value: ?
0.441

Missing value: composite z-score, wheat germ agglutinin (Triticum aestivum), Alexa647-labelled, entry O=C1OCC=C[C@H]2OC34C=CCN(CCN5CCOCC5)C(=O)[C@H]3N(CCCCCO)C(=O)[C@@H]4[C@@H]12 (stereo partly drawn) . Fill in?
0.28

Value wanted: composite z-score (wheat germ agglutinin (Triticum aestivum), Alexa647-labelled) of entry CC(C)CCC[C@@H](C)[C@H]1CC[C@@]2(C)C3=C(CC[C@]12C)[C@@]1(C)CC[C@H](OC(=O)c2ccc(N)cc2)C(C)(C)C1CC3 (stereo partly drawn)
0.0599

API: value(readout= composite z-score, system= wheat germ agglutinin (Triticum aestivum), Alexa647-labelled, query= `COc1ccc(C#Cc2ccc3c(c2)[C@]2(C(=O)N3)[C@H](c3ccc(OCCO)cc3)N3[C@H](c4ccccc4)[C@H](c4ccccc4)OC(=O)[C@H]3[C@@H]2C(=O)N2CCN(c3ncccn3)CC2)cc1` )
0.776

Lab note: need composite z-score for `CCCN1C(=O)[C@@H]2Cc3c([nH]c4ccccc34)[C@@H](c3cccc(O)c3)N2C1=O` on wheat germ agglutinin (Triticum aestivum), Alexa647-labelled, anyone have it?
-0.0455

For wheat germ agglutinin (Triticum aestivum), Alexa647-labelled, provide composite z-score of N#Cc1ccc(NN2C(C(O)c3ccco3)C=CC3C(=O)N(c4ccccc4)C(=O)C32)cc1 (stereo not drawn) please.
0.754
